EXPERIMENTAL_DETAILS: Tmax in po dosed human
Assay type: ADME, organism-based
STUDY_CONDITIONS: in vivo
QUANTITY: Tmax (min)
Numbers only, in min.

Endpoint output: Tmax of `COC(=O)N(C)c1c(N)nc(-c2nn(Cc3ccccc3F)c3ncccc23)nc1N` . Value?
30

* * *

Target sequence: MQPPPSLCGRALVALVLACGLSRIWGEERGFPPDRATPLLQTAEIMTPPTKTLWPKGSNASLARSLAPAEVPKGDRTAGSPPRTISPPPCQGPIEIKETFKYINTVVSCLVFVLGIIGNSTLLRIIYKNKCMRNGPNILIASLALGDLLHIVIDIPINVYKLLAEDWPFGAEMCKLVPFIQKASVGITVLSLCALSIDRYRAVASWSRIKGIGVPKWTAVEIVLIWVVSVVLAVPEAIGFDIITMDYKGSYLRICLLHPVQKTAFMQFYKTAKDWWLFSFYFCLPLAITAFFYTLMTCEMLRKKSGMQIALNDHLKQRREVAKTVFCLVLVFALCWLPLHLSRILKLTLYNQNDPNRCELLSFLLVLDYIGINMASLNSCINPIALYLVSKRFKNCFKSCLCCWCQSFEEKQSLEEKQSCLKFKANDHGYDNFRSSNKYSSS
QUANTITY: IC50 (µM)
Give bare numbers, in µM.

Endpoint output: IC50 of `O=S(=O)(Nc1ncnc(OCCO)c1-c1ccccc1)c1ccc(C(F)(F)F)cc1` . Value?
2
